Form field: koff (one value per entry).
- study-system: T1, human VEGF (hVEGF) (human, UniProt P15692 181-395)
- T1 construct: also called VEGF-A
- T1 sequence: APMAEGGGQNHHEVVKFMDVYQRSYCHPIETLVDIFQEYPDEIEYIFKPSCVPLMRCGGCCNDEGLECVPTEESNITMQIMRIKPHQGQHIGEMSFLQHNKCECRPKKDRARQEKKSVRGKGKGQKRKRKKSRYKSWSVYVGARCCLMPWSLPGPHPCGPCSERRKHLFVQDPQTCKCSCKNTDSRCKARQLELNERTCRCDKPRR
- test-method-notes: SPR single-cycle;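 also: fab variants injected over hVEGF immobilized on a CM5 chip (Biacore T200), threefold dilution series from 0.02 to 50 nM, kinetics fitted with a 1:1 Langmuir model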
# output: bare number, implied unit s⁻¹

Below are worked cases with known answers.
Q) Entry G6.31 HC-A71E (Fab, name in Kabat numbering, V domains shown, Fab) VH: EVQLVESGGGLVQPGGSLRLSCAASGFTISDYWIHWVRQAPGKGLEWVAGITPAGGYTYYADSVKGRFTISEDTSKNTAYLQMNSLRAEDTAVYYCARFVFFLPYAMDYWGQGTLVTVSS VL: DIQMTQSPSSLSASVGDRVTITCRASQDVSTAVAWYQQKPGKAPKLLIYSASFLYSGVPSRFSGSGSGTDFTLTISSLQPEDFATYYCQQGYGNPFTFGQGTKVEIK : reported koff = ?
A) 0.000379

Q) Next record, please: G6.31 HC-S82bE (Fab, name in Kabat numbering, V domains shown, Fab) VH: EVQLVESGGGLVQPGGSLRLSCAASGFTISDYWIHWVRQAPGKGLEWVAGITPAGGYTYYADSVKGRFTISADTSKNTAYLQMNELRAEDTAVYYCARFVFFLPYAMDYWGQGTLVTVSS VL: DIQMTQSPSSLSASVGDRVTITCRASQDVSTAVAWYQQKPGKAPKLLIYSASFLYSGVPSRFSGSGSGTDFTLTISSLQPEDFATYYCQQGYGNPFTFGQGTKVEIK
A) 0.000433

Consider now this further binder.
Q) Quick check: koff of G6.31 LC-A51E (Fab, V domains shown, Fab) VH: EVQLVESGGGLVQPGGSLRLSCAASGFTISDYWIHWVRQAPGKGLEWVAGITPAGGYTYYADSVKGRFTISADTSKNTAYLQMNSLRAEDTAVYYCARFVFFLPYAMDYWGQGTLVTVSS VL: DIQMTQSPSSLSASVGDRVTITCRASQDVSTAVAWYQQKPGKAPKLLIYSESFLYSGVPSRFSGSGSGTDFTLTISSLQPEDFATYYCQQGYGNPFTFGQGTKVEIK ?
A) 0.000462
